As shown below, each of these compounds has a reported IC50 value.
Target: Mcl-1/Bak protein-protein interactions (Homo sapiens)
Assay: Cell-based split luciferase complementation assay
Settings: HEK 293 M cells, serum-free, 4 h
metric: IC50 (µM)

- CO[C@H]1/C=C/C[C@H](C)[C@@H](C2CC2)S(=O)(=O)NC(=O)c2ccc3c(c2)N(C[C@@H]2CC[C@H]21)C[C@@]1(CCCc2cc(Cl)ccc21)CO3: 0.477
- C[C@H]1C/C=C/[C@H](O)[C@@H]2CC[C@H]2CN2C[C@@]3(CCCc4cc(Cl)ccc43)COc3ccc(cc32)C(=O)NS(=O)(=O)[C@@H]1CC1CC1 (single isomer, unassigned) [Example 61]: 0.0687
- CO[C@H]1/C=C/C[C@@H](C)[C@@H](C(C)C)S(=O)(=O)NC(=O)c2ccc3c(c2)N(C[C@@H]2CC[C@H]21)C[C@@]1(CCCc2cc(Cl)ccc21)CO3: 0.0514

* * *

Tested on: OPM-2
Test: Cell viability assay (OPM-2 10 FBS, CellTiter-Glo)
Assay type: cell-based, human
Settings: OPM-2 cells, 16 h
Label t when IC50 is strictly below 1000 nM; otherwise label f.

• CC(C)C[C@@H]1[C@@H](C)C/C=C/[C@H](O)[C@@H]2CC[C@H]2CN2C[C@@]3(CCCc4cc(Cl)ccc43)COc3ccc(cc32)C(=O)NS1(=O)=O (single isomer, unassigned) [Example 65] = f
• C[C@H]1C/C=C/[C@H](O)[C@@H]2CC[C@H]2CN2C[C@@]3(CCCc4cc(Cl)ccc43)COc3ccc(cc32)C(=O)NS(=O)(=O)[C@@H]1C1CC1 (single isomer, unassigned) [Example 46] = t
• C[C@@H]1C/C=C/[C@H](O)[C@@H]2CC[C@H]2CN2C[C@@]3(CCCc4cc(Cl)ccc43)COc3ccc(cc32)C(=O)NS(=O)(=O)[C@H]1CC1CCC1 (single isomer, unassigned) [Example 63] = t
• C[C@H]1C/C=C/[C@H](O)[C@@H]2CC[C@H]2CN2C[C@@]3(CCCc4cc(Cl)ccc43)COc3ccc(cc32)C(=O)NS(=O)(=O)[C@@H]1C1CCC1 (single isomer, unassigned) [Example 57] = f
• CC(C)[C@@H]1[C@H](C)C/C=C/[C@H](O)[C@@H]2CC[C@H]2CN2C[C@@]3(CCCc4cc(Cl)ccc43)COc3ccc(cc32)C(=O)NS1(=O)=O (single isomer, unassigned) [Example 52] = f
• C[C@@H]1C/C=C/[C@H](O)[C@@H]2CC[C@H]2CN2C[C@@]3(CCCc4cc(Cl)ccc43)COc3ccc(cc32)C(=O)NS(=O)(=O)C1 (single isomer, unassigned) = t
• CC(C)C[C@@H]1[C@@H](C)C/C=C/[C@H](O)[C@@H]2CC[C@H]2CN2C[C@@]3(CCCc4cc(Cl)ccc43)COc3ccc(cc32)C(=O)NS1(=O)=O (single isomer, unassigned) [Example 67] = t

* * *

Test system: OPM-2
Assay: Cell viability assay (OPM-2 10 FBS, CellTiter-Glo)
Assay type: cell-based, human
Settings: OPM-2 cells, 16 h
In this section we review reported IC50 values for a set of molecules.
metric: IC50 (µM)

* C[C@H]1C/C=C/[C@H](O)[C@@H]2CC[C@H]2CN2C[C@@]3(CCCc4cc(Cl)ccc43)COc3ccc(cc32)C(=O)NS(=O)(=O)[C@@H]1CC1CC1 (single isomer, unassigned) [Example 61] | 1.32
* C[C@@H]1C/C=C/[C@H](O)[C@@H]2CC[C@H]2CN2C[C@@]3(CCCc4cc(Cl)ccc43)COc3ccc(cc32)C(=O)NS(=O)(=O)[C@H]1CC1CCC1 (single isomer, unassigned) [Example 64] | 8.63
* C[C@H]1C/C=C/[C@H](O)[C@@H]2CC[C@H]2CN2C[C@@]3(CCCc4cc(Cl)ccc43)COc3ccc(cc32)C(=O)NS(=O)(=O)[C@@H]1CC1CC1 (single isomer, unassigned) [Example 59] | 0.247

* * *

Target: recombinant human Mcl-1 (Homo sapiens, UniProt Q07820)
Construct: C-terminally 6×His tagged Mcl-1 containing residues 171-327
Sequence (Q07820 171-327): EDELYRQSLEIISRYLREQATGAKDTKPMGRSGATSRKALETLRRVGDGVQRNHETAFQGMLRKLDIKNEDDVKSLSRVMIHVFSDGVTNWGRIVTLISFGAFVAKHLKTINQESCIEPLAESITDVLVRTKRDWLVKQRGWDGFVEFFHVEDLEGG
Experiment: Cell free Mcl-1:Bim affinity assay (Mcl-1 HTRF, TR-FRET)
Settings: inhibition of Mcl-1/Bim interaction
Catalogue of compounds with associated IC50
metric: IC50 (nM)

* CC1(C)CC/C=C\[C@H](O)[C@@H]2CC[C@H]2CN2C[C@@]3(CCCc4cc(Cl)ccc43)COc3ccc(cc32)C(=O)NS1(=O)=O (single isomer, unassigned) | 4.42
* COCCO[C@H]1/C=C/C[C@H](C)[C@@H](C)S(=O)(=O)NC(=O)c2ccc3c(c2)N(C[C@@H]2CC[C@H]21)C[C@@]1(CCCc2cc(Cl)ccc21)CO3 | 2.23
* CC[C@@H]1CC/C=C/[C@H](OC)[C@@H]2CC[C@H]2CN2C[C@@]3(CCCc4cc(Cl)ccc43)COc3ccc(cc32)C(=O)NS1(=O)=O | 0.647
* COCCO[C@H]1/C=C/CC[C@@H](C)S(=O)(=O)NC(=O)c2ccc3c(c2)N(C[C@@H]2CC[C@H]21)C[C@@]1(CCCc2cc(Cl)ccc21)CO3 | 1.12
* CC[C@@H]1CCCC[C@H](O)[C@@H]2CC[C@H]2CN2C[C@@]3(CCCc4ccccc43)COc3ccc(cc32)C(=O)NS1(=O)=O | 0.704

* * *

Tested on: OPM-2
Experiment: Cell viability assay (OPM-2 10 FBS, CellTiter-Glo)
Format: cell-based, human
Settings: OPM-2 cells, 16 h
pIC50: −log10 of the molar value.
Reported pIC50 values are given for each entry in this list.
metric: pIC50

- CC(C)[C@@H]1[C@H](C)C/C=C/[C@H](O)[C@@H]2CC[C@H]2CN2C[C@@]3(CCCc4cc(Cl)ccc43)COc3ccc(cc32)C(=O)NS1(=O)=O (single isomer, unassigned) [Example 50]: 5.88
- C[C@H]1C/C=C/[C@H](O)[C@@H]2CC[C@H]2CN2C[C@@]3(CCCc4cc(Cl)ccc43)COc3ccc(cc32)C(=O)NS(=O)(=O)[C@@H]1C1CCC1 (single isomer, unassigned) [Example 55]: 5.06
- CO[C@H]1/C=C/C[C@H](C)CS(=O)(=O)NC(=O)c2ccc3c(c2)N(C[C@@H]2CC[C@H]21)C[C@@]1(CCCc2cc(Cl)ccc21)CO3 (single isomer, unassigned): 5.45
- C[C@H]1C/C=C/[C@H](O)[C@@H]2CC[C@H]2CN2C[C@@]3(CCCc4cc(Cl)ccc43)COc3ccc(cc32)C(=O)NS(=O)(=O)[C@@H]1CC1CC1 (single isomer, unassigned) [Example 58]: 6.30
- COCCO[C@H]1/C=C/C[C@@H](C)CS(=O)(=O)NC(=O)c2ccc3c(c2)N(C[C@@H]2CC[C@H]21)C[C@@]1(CCCc2cc(Cl)ccc21)CO3 (single isomer, unassigned): 5.50
- C[C@H]1C/C=C/[C@H](O)[C@@H]2CC[C@H]2CN2C[C@@]3(CCCc4cc(Cl)ccc43)COc3ccc(cc32)C(=O)NS(=O)(=O)[C@@H]1C1CC1 (single isomer, unassigned) [Example 45]: 4.70
- C[C@H]1C/C=C/[C@H](O)[C@@H]2CC[C@H]2CN2C[C@@]3(CCCc4cc(Cl)ccc43)COc3ccc(cc32)C(=O)NS(=O)(=O)[C@@H]1C1CCC1 (single isomer, unassigned) [Example 56]: 6.68
- CC(C)[C@@H]1[C@H](C)C/C=C/[C@H](O)[C@@H]2CC[C@H]2CN2C[C@@]3(CCCc4cc(Cl)ccc43)COc3ccc(cc32)C(=O)NS1(=O)=O (single isomer, unassigned) [Example 51]: 4.84
- COCCO[C@H]1/C=C/C[C@H](C)CS(=O)(=O)NC(=O)c2ccc3c(c2)N(C[C@@H]2CC[C@H]21)C[C@@]1(CCCc2cc(Cl)ccc21)CO3 (single isomer, unassigned): 5.56

* * *

Molecular target: Mcl-1/Bak protein-protein interactions (Homo sapiens, UniProt Q07820)
Sequence (Q07820 whole entry): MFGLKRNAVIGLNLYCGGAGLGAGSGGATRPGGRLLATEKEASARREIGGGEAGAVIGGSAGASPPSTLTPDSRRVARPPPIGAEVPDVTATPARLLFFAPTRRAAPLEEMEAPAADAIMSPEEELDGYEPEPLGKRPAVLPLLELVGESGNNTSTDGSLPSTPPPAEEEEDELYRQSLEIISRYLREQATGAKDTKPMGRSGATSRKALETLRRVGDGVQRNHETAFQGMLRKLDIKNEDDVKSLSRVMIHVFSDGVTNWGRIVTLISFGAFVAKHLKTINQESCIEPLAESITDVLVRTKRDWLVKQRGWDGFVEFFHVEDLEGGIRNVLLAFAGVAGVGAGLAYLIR
Test: Cell-based split luciferase complementation assay
Conditions: HEK 293 M cells, serum-free, 4 h
Label Met when IC50 is strictly below 200 nM; at or above that, label Not met.

* C[C@H]1C/C=C/[C@H](O)[C@@H]2CC[C@H]2CN2C[C@@]3(CCCc4cc(Cl)ccc43)COc3ccc(cc32)C(=O)NS(=O)(=O)[C@@H]1CC1CC1 (single isomer, unassigned) [Example 59] | Met
* CC[C@@H]1CC/C=C/[C@H](OCCOC)[C@@H]2CC[C@H]2CN2C[C@@]3(CCCc4cc(Cl)ccc43)COc3ccc(cc32)C(=O)NS1(=O)=O | Met
* CCC[C@@H]1[C@@H](C)C/C=C/[C@H](O)[C@@H]2CC[C@H]2CN2C[C@@]3(CCCc4cc(Cl)ccc43)COc3ccc(cc32)C(=O)NS1(=O)=O (single isomer, unassigned) [Example 69] | Not met
* CC[C@@H]1CC/C=C/[C@H](OC)[C@@H]2CC[C@H]2CN2C[C@@]3(CCCc4cc(Cl)ccc43)COc3ccc(cc32)C(=O)NS1(=O)=O | Met
* CC1(C)CC/C=C/[C@H](O)[C@@H]2CC[C@H]2CN2C[C@@]3(CCCc4cc(Cl)ccc43)COc3ccc(cc32)C(=O)NS1(=O)=O (single isomer, unassigned) | Not met

The reported numbers originate from patent US11685747B2.
